Source: the supplement of paper PMC10127200

system: A549; assay: Euclidean distance of Cell Painting phenotypic profile (signed KS, 77 features) to DMSO centroid (dimensionless distance); 5 or 10 uM (library dependent); higher = stronger phenotypic change vs DMSO (phenoactivity); conditions: 48 h
Where a name gives a salt, the structure may show the parent alone.
measured.quantity: Euclidean distance

Sample records with Euclidean distance:
compound="CC(=O)/N=c1/sc(S(N)(=O)=O)nn1C [Methazolamide]" observed=0.988
compound=CN1CCN(c2nc(C3=C(c4c[nH]c5ccccc45)C(=O)NC3=O)c3ccccc3n2)CC1 observed=1.58
compound=O=C1NC(=O)C(c2ccccc2[N+](=O)[O-])=C1Nc1ccc(O)c(Cl)c1 observed=0.916
compound="NNc1nncc2ccccc12 [Hydralazine HCl]" observed=1.23
compound=CC(C)NNC(=O)c1ccncc1 observed=0.606

Quick batch: Euclidean distance for everything below.
1. C[C@@H]1O[C@@H](O[C@H]2[C@H](Oc3cc(O)c4c(c3)O[C@H](c3ccc(O)cc3)CC4=O)O[C@H](CO)[C@@H](O)[C@@H]2O)[C@H](O)[C@H](O)[C@H]1O
2. OCCn1cc(-c2ccc3c(c2)CC/C3=N\O)c(-c2ccncc2)n1
3. CC[C@H](C)C[C@H](C)CCCCCCCCC(=O)N[C@H]1C[C@@H](O)[C@@H](NCCN)NC(=O)[C@@H]2[C@@H](O)CCN2C(=O)[C@H]([C@H](O)CCN)NC(=O)[C@H]([C@H](O)[C@@H](O)c2ccc(O)cc2)NC(=O)[C@@H]2C[C@@H](O)CN2C(=O)[C@H]([C@@H](C)O)NC1=O [Caspofungin Acetate]
4. C[C@]12C=CC(=O)C=C1CC[C@H]1[C@@H]3C[C@@H](O)[C@](O)(C(=O)CO)[C@@]3(C)C[C@H](O)[C@@]12F
5. O=C(/C=C/c1ccc(O)c(O)c1)O[C@H](Cc1ccc(O)c(O)c1)C(=O)O
6. CCN1CCN(Cc2ccc(Nc3ncc(F)c(-c4cc(F)c5nc(C)n(C(C)C)c5c4)n3)nc2)CC1
7. C[C@]12CCC3=C4CCC(=O)C=C4CC[C@H]3[C@@H]1CC[C@@]2(O)CC#N

Out:
1. 1.01
2. 0.879
3. 0.866
4. 1.88
5. 0.874
6. 5.05
7. 0.862

---

system: FB; test: Euclidean distance of Cell Painting phenotypic profile (signed KS, 77 features) to DMSO centroid (dimensionless distance); 5 or 10 uM (library dependent); higher = stronger phenotypic change vs DMSO (phenoactivity); conditions: 48 h
Counter-ions that a name gives are not always drawn.
measured.quantity: Euclidean distance
Numbers only.

Illustrative cases are given below, each with its answer.
molecule="Cc1ccc(=O)n(-c2ccccc2)c1 [Pirfenidone]" observed=0.845
molecule="CC1(C)CCC(c2ccc(Cl)cc2)=C(CN2CCN(c3ccc(C(=O)NS(=O)(=O)c4ccc(N[C@H](CCN5CCOCC5)CSc5ccccc5)c(S(=O)(=O)C(F)(F)F)c4)cc3)CC2)C1 [ABT-263 (Navitoclax)]" observed=1.16
molecule="COc1ccc2c(c1)c(CC(=O)O)c(C)n2C(=O)c1ccc(Cl)cc1 [Indomethacin]" observed=0.86
molecule="CC1(C)S[C@@H]2[C@H](NC(=O)Cc3ccccc3)C(=O)N2[C@H]1C(=O)O.CCN(CC)CCOC(=O)c1ccc(N)cc1 [Penicillin G Procaine]" observed=1.38

Count: 8. Required value per item: Euclidean distance.
1. CC(C)(Sc1ccncc1-c1ccc(C#N)c2ccccc12)C(=O)O [Verinurad (RDEA3170)]
2. CCCCCCCCN=C(N)NC(N)=NCc1ccc(Cl)c(Cl)c1 [Olanexidine Hydrochloride semihydrate]
3. Cc1ccc(Cl)c(Nc2ccccc2C(=O)O)c1Cl [Meclofenamate Sodium]
4. C=CC(=O)Nc1cc2c(Nc3ccc(F)c(Cl)c3)ncnc2cc1OCCCN1CCOCC1 [Canertinib (CI-1033)]
5. CNC(=O)c1cc(COc2nnc(Nc3ccc(Cl)cc3)c3ccoc23)ccn1 [Telatinib]
6. CCOc1nc2cccc(C(=O)O)c2n1Cc1ccc(-c2ccccc2-c2noc(=O)[nH]2)cc1 [Azilsartan]
7. NC(=O)N[C@@H](CCC(=O)O)C(=O)O [Carglumic Acid]
8. Nc1nc2c(ncn2COC(CO)CO)c(=O)[nH]1 [Ganciclovir]

Out:
1.25
6.15
1.48
1.25
2.01
0.563
1.06
1.25

Would you mind giving Euclidean distance for every molecule in the list below?
1. O=C(c1cccc(Cl)c1F)N1CCN(Cc2cccc(Nc3nccs3)n2)CC1
2. N#CC[C@H](C1CCCC1)n1cc(-c2ncnc3[nH]ccc23)cn1 [Ruxolitinib Phosphate]

Out:
[2.34, 1.39]

For each of the items listed, what is its Euclidean distance?
1. CCC1=C[C@@H]2CN(C1)Cc1c([nH]c3ccccc13)[C@@](C(=O)OC)(c1cc3c(cc1OC)N(C)[C@H]1[C@@](O)(C(=O)OC)[C@H](OC(C)=O)[C@]4(CC)C=CCN5CC[C@]31[C@@H]54)C2 [Vinorelbine Tartrate]
2. CC(=O)Nc1ncc([N+](=O)[O-])s1 [Nithiamide]
3. CCCc1ncc(C[n+]2ccccc2C)c(N)n1 [Amprolium HCl]
4. OCCn1cc(-c2cnc3nnn(Cc4ccc5ncccc5c4)c3n2)cn1
5. CC1=NN(c2ccc(C)c(C)c2)C(=O)/C1=N\Nc1cccc(-c2cccc(C(=O)O)c2)c1O [Eltrombopag]

Out:
[3.46, 0.606, 1.27, 0.792, 2.71]

Give Euclidean distance for each of the items listed below.
1. Oc1ccc([C@H]2COc3cc(O)ccc3C2)cc1 [Equol]
2. Cc1ccc(C(=O)N(CCCN)[C@@H](c2oc3cc(Cl)ccc3c(=O)c2Cc2ccccc2)C(C)C)cc1
3. CCCCOc1nc(N)c2c(n1)N(Cc1cccc(CN3CCCC3)c1)CC(=O)N2
4. CCn1c(N)c(C(=O)NC)c(=O)c2ccc(C#CC(C)(O)COC)nc21 (centres undefined)
5. Cc1nnc(SCC2=C(C(=O)O)N3C(=O)[C@@H](NC(=O)Cn4cnnn4)[C@H]3SC2)s1 [Cefazolin]
6. Cc1ccnc(NS(=O)(=O)c2ccc(N)cc2)n1 [Sulfamerazine]
7. COc1cc2nccc(Oc3ccc(NC(=O)NC4CC4)c(Cl)c3)c2cc1C(N)=O [lenvatinib Mesylate]

Out:
1: 1.35; 2: 2.4; 3: 0.941; 4: 1.97; 5: 1.6; 6: 0.862; 7: 3.39
